Can you tell me inhibition at 1 µM for the items I'm about to list?
TARGET_UNDER_TEST: PDGFRb (Homo sapiens)
Construct: The kinase domain of PDGFRβ was assayed in 50 mM Hepes; purchased Invitrogen P3082
Sequence (P09619 600-962 limits assumed): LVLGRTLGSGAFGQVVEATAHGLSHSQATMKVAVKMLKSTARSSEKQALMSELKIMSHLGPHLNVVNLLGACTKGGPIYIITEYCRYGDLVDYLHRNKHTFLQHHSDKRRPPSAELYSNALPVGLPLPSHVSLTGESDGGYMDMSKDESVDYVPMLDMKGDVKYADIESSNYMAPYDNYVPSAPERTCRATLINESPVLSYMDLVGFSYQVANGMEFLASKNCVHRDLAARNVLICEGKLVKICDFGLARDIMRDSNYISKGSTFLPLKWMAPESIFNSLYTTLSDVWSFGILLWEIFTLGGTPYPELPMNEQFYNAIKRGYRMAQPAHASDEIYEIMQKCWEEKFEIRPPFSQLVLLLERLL
TEST_NAME: Inhibition of PDGFRb kinase in an in vitro biochemical assay (alphascreen)
SETUP_CONDITIONS: tested at about 1 μM; read-out: PDGFR % inhibition at 1 μM
Field: numeric (%). Do not append units.

Write down the reported inhibition at 1 µM of CNC(=O)c1cc(Oc2ccc3nc(N[C@H](CO)C4CCCCC4)ncc3c2)ccn1 [Cmpd 18] , test system: PDGFRb (Homo sapiens). 31

Item: CNC(=O)c1cc(Sc2ccc3nc(NCC4CCCCC4)sc3c2)ccn1 [Example 78] Test system: PDGFRb (Homo sapiens) Read-out: inhibition at 1 µM Value: ? 34

Query for PDGFRb (Homo sapiens): what inhibition at 1 µM does the record show for CNC(=O)c1cc(Oc2ccc3nc(NC(=O)C4CCCCC4)ncc3c2)ccn1 [Example 59] ? 13
